assayExplanation: blockers of mitochondrial fusion, WT vs mutant – cell-based, chemical genetic, wild-type and mutant, confirmation (AID 1361)
testSettings: Cell-based mitochondrial fusion phenotype, imaging, WT cells
Activity calls are given as the source filed them. The rule behind the calls is not given here.
Possible outcomes: active, inactive

[[record]]
compound = "CCCCCCCOC(=O)c1nc(Cl)c(Cl)c(N)c1Cl"
qualitativelabel = "active"

[[record]]
compound = "CCC(C)(C)NC(=O)CN(C(=O)c1snc(C(N)=O)c1N)c1ccc2c(c1)OCCO2"
qualitativelabel = "inactive"

[[record]]
compound = "FC(F)(F)c1ccc(Oc2ccc3ccccc3c2Br)nc1"
qualitativelabel = "inactive"

[[record]]
compound = "N#CC(C#N)=c1ccc2c(c1)N1C3=C(CCCC3)CC3CCCCC31N=2 (stereo not given)"
qualitativelabel = "active"

[[record]]
compound = "CCC(C)(C)NC(=O)C(c1ccc(C)cc1)N(Cc1cccs1)C(=O)c1ccc2c(c1)OCCO2 (stereo not given)"
qualitativelabel = "active"

[[record]]
compound = "COC(=O)[C@@H]1CC[C@H](C)[C@@H](c2ccc(C)cc2)N1C(=O)c1ccc(/C=N/O[C@@H](C)CN2CCCCc3nc(C)c(C)cc32)cc1"
qualitativelabel = "active"

[[record]]
compound = "CC(C)C(=O)Nc1nnc(SCC(=O)NCc2cccs2)s1"
qualitativelabel = "inactive"

[[record]]
compound = "Cc1cccc(-n2c(-c3csc4ccccc34)n[nH]c2=S)c1"
qualitativelabel = "inactive"

[[record]]
compound = "CSCc1nnc(NC(=O)c2ccc(S(=O)(=O)N(CC(C)C)CC(C)C)cc2)o1"
qualitativelabel = "inactive"

[[record]]
compound = "Cn1c(CCN2CCN(c3ccccc3)CC2)nc2cc(NC(=O)c3ccco3)ccc21"
qualitativelabel = "inactive"


----------
assayExplanation: blockers of mitochondrial fusion, WT vs mutant – cell-based, chemical genetic, wild-type and mutant, confirmation (AID 1361)
testSettings: Cell-based mitochondrial fusion phenotype, imaging, WT cells
Calls of active or inactive are those of the source. How the calls were made is not given here.
Possible outcomes: active, inactive

[[record]]
compound = "CCOc1ccc(NC(=O)C2CC(=O)N(C(C)C)C2)cc1 (stereo unspecified)"
qualitativelabel = "inactive"

[[record]]
compound = "CC(C)N(C(=S)NC1CC2CCC1C2)c1ccccc1 (stereo unspecified)"
qualitativelabel = "inactive"

[[record]]
compound = "COCCN(C(=S)Nc1ccc(C(C)C)cc1)C(C)c1cccs1 (stereo unspecified)"
qualitativelabel = "inactive"

[[record]]
compound = "Oc1ccccc1-c1nc(/C=C/c2ccccc2)nn1-c1ccccc1"
qualitativelabel = "active"

[[record]]
compound = "COc1nc(SC)nc(Cl)c1Cc1ccc(OC(C)C)cc1"
qualitativelabel = "active"

[[record]]
compound = "CC(C)(C)c1ccc(CSc2nnc(-c3ccccn3)n2Cc2ccco2)cc1"
qualitativelabel = "active"

[[record]]
compound = "Cc1ccc(CNC(=O)CCNC(=O)c2ccco2)cc1"
qualitativelabel = "inactive"

[[record]]
compound = "Cc1ccc(-c2csc3ncnc(N4CCc5ccccc5C4)c23)cc1"
qualitativelabel = "active"

[[record]]
compound = "COC(=O)c1ccc(/C=C(\\C#N)c2nc3ccccc3s2)cc1"
qualitativelabel = "inactive"

[[record]]
compound = "CCOc1ccc(Oc2c(/C=N/NC(=O)COc3ccccc3OC)c(C)nn2-c2ccccc2)cc1"
qualitativelabel = "active"

[[record]]
compound = "O=c1c2c3c(sc2nc2n1CCC2)CCC3"
qualitativelabel = "inactive"

